- study system: T1, COVID S1 RBD Fc fusion (Antigen 1) (SARS-CoV-2, UniProt P0DTC2 319-541)
- T1 construct: domain: RBD
- assay info: phage ELISA
Each entry below carries its reported specificity ELISA, fold over background.
Please respond with the number in fold over background and leave the unit unwritten.

Can you look up the measured specificity ELISA, fold over background of SARS-CoV-2 variant 1-8 (antibody, V domains shown) VH: EVQLLESGGGLVQPGGSLRLSCAASGFTFSSYDMSWVRQAPGKGLEWVSVISGSGGSTYYADSVKGRFTISRDNSKNTLYLQMNSLRAEDTAVYYCAKGPLVGWYFDLWGQGTLVTVSS VL: QSALTQPASVSGSPGQSITISCTGTSNDVGSYNLVSWYQQHPGKAPKLMIYEGSKRPSGVSNRFSGSKSGNTASLTISGLQAEDEADYYCCSYAGSRYVVFGGGTKLTVL for me?
11.2

Thanks! And SARS-CoV-2 variant 1-24 (antibody, V domains shown) VH: EVQLLESGGGLVQPGGSLRLSCAASGFTFSSYAMNWVRQAPGKGLEWVSIISGSGGSTYYADSVKGRFTISRDNSKNTLYLQMNSLRAEDTAVYYCAREGYRDYLWYFDLWGQGTLVTVSS VL: QSALTQPASVSGSPGQSITISCTGTSSDVGYYNLVSWYQQHPGKAPKLMIYEGNKRPSGVSNRFSGSKSGNTASLTISGLQAEDEADYYCCSYAGGSVVFGGGTKLTVL ?
11

Check SARS-CoV-2 variant 1-47 (antibody, V domains shown) VH: EVQLLESGGGLVQPGGSLRLSCAASGFTFSSQAMSWVRQAPGKGLEWVSAISGSGGGTYYADSVKGRFTISRDNSKNTLYLQMNSLRAEDTAVYYCAKDRRFGEFDPWGQGTLVTVSS VL: QSALTQPASVSGSPGQSITISCTGTSSGVGSYNLVSWYQQHPGKAPKLMIYEGIKRPSGVSNRFSGSKSGNTASLTISGLQAEDEADYYCCSYAGSSSFVVFGGGTKLTVL too.
5.5

How about this binder: SARS-CoV-2 variant 1-22 (antibody, V domains shown) VH: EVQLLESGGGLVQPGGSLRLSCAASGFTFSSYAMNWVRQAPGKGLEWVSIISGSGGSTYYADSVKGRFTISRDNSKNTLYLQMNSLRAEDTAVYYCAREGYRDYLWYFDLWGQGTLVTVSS VL: QSALTQPASVSGSPGQSITISCTGTSTDVGSYNLVSWYQQHPGKAPKLMIYEGSQRPSGVSNRFSGSKSGNTASLTISGLQAEDEADYYCCSYAGSSTVFGGGTKLTVL
26.5

Do the same for SARS-CoV-2 variant 1-10 (antibody, V domains shown) VH: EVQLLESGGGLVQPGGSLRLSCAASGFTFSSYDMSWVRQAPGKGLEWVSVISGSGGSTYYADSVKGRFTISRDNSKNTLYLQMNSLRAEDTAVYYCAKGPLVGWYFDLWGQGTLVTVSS VL: QSALTQPASVSGSPGQSITISCTGTSSNVGSYNLVSWYQQHPGKAPKLMIYEGTKRPSGVSNRFSGSKSGNTASLTISGLQAEDEADYYCCSYAGSSSFVVFGGGTKLTVL please
17.4

Note, next up: SARS-CoV-2 variant 1-7 (antibody, V domains shown) VH: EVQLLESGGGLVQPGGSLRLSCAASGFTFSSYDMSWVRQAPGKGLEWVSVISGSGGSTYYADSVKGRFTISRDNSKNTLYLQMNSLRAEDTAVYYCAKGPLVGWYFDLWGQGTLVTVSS VL: QSALTQPASVSGSPGQSITISCTGTSSDFGSYNLVSWYQQHPGKAPKLMIYEGNKRPSGVSNRFSGSKSGNTASLTISGLQAEDEADYYCCSYAGSSTFVVFGGGTKLTVL
3.3
